Kd values for the binders below.
measurementTarget: 2x3F ZIF-GAC (artificial)
Sequence (chain, as listed by the source): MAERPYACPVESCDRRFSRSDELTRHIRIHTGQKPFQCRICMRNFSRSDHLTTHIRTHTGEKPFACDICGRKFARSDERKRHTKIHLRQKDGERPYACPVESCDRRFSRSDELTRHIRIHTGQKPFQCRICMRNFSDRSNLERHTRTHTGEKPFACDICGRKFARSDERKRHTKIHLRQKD
testMethodNotes: EMSA; apparent Kd
studyConditions: label: 32P

- binder: "bs1 (12356) (dsDNA) DNA 1: GCGGACGCGTGGGCG DNA 2: CGCCCACGCGTCCGC"
  Kd (nM): 0.36
- binder: "bs4 (123///56) (dsDNA) DNA 1: GCGGACATCGCGTGGGCG DNA 2: CGCCCACGCGATGTCCGC"
  Kd (nM): 0.015
- binder: "bs3 (123//56) (dsDNA) DNA 1: GCGGACTCGCGTGGGCG DNA 2: CGCCCACGCGAGTCCGC"
  Kd (nM): 0.014
- binder: "bsC (123456, ZM) (dsDNA) DNA 1: GCGGACGCGGCGTGGGCG DNA 2: CGCCCACGCCGCGTCCGC"
  Kd (nM): 0.0014
- binder: "bs2 (123/56) (dsDNA) DNA 1: GCGGACTGCGTGGGCG DNA 2: CGCCCACGCAGTCCGC"
  Kd (nM): 0.014
